# System tested: BRD4 (BD1) (Homo sapiens)
# Construct: with relatively long constructs also being possible, preferably amino acids 44-168
# Assay notes: Binding assay BRD4/acetylated peptide H4 (TR-FRET protein-protein interaction assay)
Measurement label: pIC50
One number for each entry, as −log10 of the molar value.

# count of solved cases: 3
>>> df
                                   molecule  quantitative_readout
0  CNC(=O)N1N=C(c2ccc(N3CCN(C)CC3=O)cc2)c2cc(OC)c(OC)cc2C[C@H]1C                  5.34
1  CNC(=O)N1N=C(c2ccc(N3CCN(C)CC3)c(Br)c2)c2cc(OC)c(OC)cc2C[C@@H]1C                  7.40
2  CNC(=O)N1N=C(c2ccc(-c3c(C)noc3C)cc2)c2cc(Cl)c(OC)cc2C[C@H]1C                  6.33

Q: Look up pIC50: CNC(=O)N1N=C(c2ccc(N3CCC(NC(C)=O)CC3)cc2)c2cc(OC)c(OC)cc2CC1C (racemic)
Ans: 7.30

* * *

# System tested: BRD4 (BD1) (Homo sapiens)
# Construct: with relatively long constructs also being possible, preferably amino acids 44-168
# Assay notes: Binding assay BRD4/acetylated peptide H4 (TR-FRET protein-protein interaction assay)
Assignment: determine reported IC50 for the given compounds.
Answers are plain numbers, in nM.

                                   compound  measurement_label  quantitative_readout
0  CNC(=O)N1N=C(c2ccc(-n3nc(-c4ccccc4)cc3C)cc2)c2cc(OC)c(OC)cc2C[C@@H]1C               IC50                    30
1  CNC(=O)N1N=C(c2ccc(Cl)cc2)c2cc(OC(F)(F)F)c(Cl)cc2CC1C (single isomer, unassigned) [Example 15.1]               IC50                   450
2  CNC(=O)N1N=C(c2ccc(N3CCOCC3)cc2)c2cc(OC)c(OC)cc2C[C@H]1C               IC50                  3190

Here is the next item to consider.
Q: Look up IC50: CNC(=O)N1N=C(c2ccc(F)c(-c3c(C)noc3C)c2)c2cc(OC)c(OC)cc2CC1C (racemic)
Ans: 250

* * *

# System tested: BRD4 (BD1) (Homo sapiens, UniProt O60885)
# Construct: with relatively long constructs also being possible, preferably amino acids 44-168
# Assay notes: Binding assay BRD4/acetylated peptide H4 (TR-FRET protein-protein interaction assay)
Measurement label: IC50 (nM)
Answers are plain numbers, in nM.

>>> print(df.to_string())
                                   compound  quantitative_readout
0  CNC(=O)N1N=C(c2ccc(Cl)cc2)c2cc(OCCCN3CCN(C)CC3)ccc2CC1C (racemic)                    60
1  CNC(=O)N1N=C(c2ccc(N3CC(F)(F)C3)cc2)c2cc(OC)c(OC)cc2CC1C (racemic)                    70
2  CNC(=O)N1N=C(c2ccc(Cl)cc2)c2cc(N3CCOCC3)ccc2C[C@@H]1C                    80
3  CNC(=O)N1N=C(c2ccc(N3CCC(O)CC3)cc2)c2cc(OC)c(OC)cc2CC1C (racemic)                    30
4  CNC(=O)N1N=C(c2ccc(N3CCN(C)CC3)cc2)c2cc(OC)c(OC(F)F)cc2C[C@@H]1C                    30

The following compounds each have a reported value; give each one's IC50.
1. CNC(=O)N1N=C(c2ccc(-c3ccccc3NS(C)(=O)=O)cc2)c2cc(OC)c(OC)cc2CC1C (racemic)
2. CNC(=O)N1N=C(c2ccc(N3CCN(C)CC3)cc2)c2cc(OC)c(OC)cc2C[C@@H]1C
3. CNC(=O)N1N=C(c2ccc(-c3cnccc3OC)cc2)c2cc(OC)c(OC)cc2CC1C (racemic)
4. CNC(=O)N1N=C(c2ccc(-c3cccc(C(=O)N4CCCC4)c3)cc2)c2cc(OC)c(OC)cc2CC1C (racemic)
5. CNC(=O)N1N=C(c2ccc(-c3ccc(C(=O)N4CCCC4)cc3)cc2)c2cc(OC)c(OC)cc2CC1C (racemic)
6. CNC(=O)N1N=C(c2ccc(-c3cccc(C(F)(F)F)c3)cc2)c2cc(OC)c(OC)cc2CC1C (racemic)
7. CNC(=O)N1N=C(c2cccc(N3CCC3)c2)c2cc(OC)c(OC)cc2CC1C (racemic)
8. CNC(=O)N1N=C(c2cccc(N3CCN(C)CC3)c2)c2cc(OC)c(OC)cc2CC1C (racemic)

Ans:
1. 70
2. 50
3. 30
4. 40
5. 40
6. 290
7. 100
8. 170

The following compounds each have a reported value; give each one's IC50.
1. CCOc1cc2c(cc1OCC)C(c1ccc(N3CCN(C)CC3)cc1)=NN(C(=O)NC)C(C)C2 (racemic)
2. CNC(=O)N1N=C(c2ccc(-c3cnc(OC)nc3)cc2)c2cc(OC)c(OC)cc2CC1C (racemic)

Ans:
500
80
